Below, each of the molecules is paired with its reported LD50 value.
- experimental protocol: Toxicity in ig dosed Mus musculus (mouse)
- Format: organism-based
- condition label: in vivo, po

{"molecule": "C=CCc1ccc(OC(=O)c2ccccc2OC(C)=O)c(OC)c1 [ASPIRIN EUGENOL ESTER]", "LD50 / mg/kg": 10900}
{"molecule": "C=CCc1ccc(O)c(OC)c1 [EUGENOL]", "LD50 / mg/kg": 3000}
{"molecule": "CC(=O)Oc1ccccc1C(=O)O [ASPIRIN]", "LD50 / mg/kg": 250}
